# target-desc: SeSSB (single-stranded DNA-binding protein, STM_4256) (Salmonella enterica, UniProt P0A2F6)
# Sequence (P0A2F6 whole entry): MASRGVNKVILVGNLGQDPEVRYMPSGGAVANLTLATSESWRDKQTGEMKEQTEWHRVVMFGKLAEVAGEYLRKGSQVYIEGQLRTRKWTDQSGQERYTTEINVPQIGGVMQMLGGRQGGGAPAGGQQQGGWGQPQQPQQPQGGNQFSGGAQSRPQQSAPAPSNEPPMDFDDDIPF
assay-readout: pIC50
Scale for pIC50: -log10 of concentration given in mol/L; no unit attached.

query: # lookup: pIC50 of O=C1c2c(O)cc(O)cc2O[C@H](c2ccc(O)c(O)c2)[C@H]1O
result: 4.01
